- Assay text: Human HepG2 cell viability assay in 384 well format
- Type: toxicity, cell-based
- Set-up: dose 125 nL, time 70.5 hour; concentration not given beside the values
- Condition summary: HepG2 cells, read-out: Inhibition
Here, each record is paired with measured cytotoxicity at 70.5 h data.
Metric: cytotoxicity at 70.5 h (%)

>>> print(df.to_string())
                                    molecule                  metric  recorded_result
 0  CC(C)CN1CCN(C(=O)c2cc(=O)c3ccccc3[nH]2)CC1  cytotoxicity at 70.5 h            -2.68
 1  O=C1NC2(CCN(Cc3nccs3)CC2)CC1c1ccncc1 (stereo unspecified)  cytotoxicity at 70.5 h           -0.916
 2  CC(CCN(C)C)NC(=O)c1cccc(C(F)(F)F)c1F (stereo unspecified)  cytotoxicity at 70.5 h            -1.47
 3                N#CCCCn1nnnc1Cc1ccc(Br)cc1  cytotoxicity at 70.5 h            -13.9
 4           CC(C)CCNC(=O)Cc1cnc(-n2cccc2)s1  cytotoxicity at 70.5 h              -21
 5        CCCN1CCC(Cc2noc(-c3cccnc3OC)n2)CC1  cytotoxicity at 70.5 h             2.25
 6    N#Cc1ccc(CC(=O)N2CCC(Nc3cccnn3)CC2)cc1  cytotoxicity at 70.5 h            -5.35
 7     CN(C)CCOCc1nnc2n1CCN(Cc1ccc(F)cc1)CC2  cytotoxicity at 70.5 h             23.8
 8      CNC(=O)N1CCC2(CC1)CN(C)Cc1cc(F)ccc12  cytotoxicity at 70.5 h             2.33
 9      COC(=O)CCNC(=O)c1c[nH]cc1-c1ccccc1OC  cytotoxicity at 70.5 h            -3.42
10        COc1ccc(Br)c(NC(=O)NCc2cnn(C)c2)c1  cytotoxicity at 70.5 h            -13.3
11  Cc1cnccc1NCCn1ccnc1C1CCOC1 (stereo unspecified)  cytotoxicity at 70.5 h            -3.31
12  Cc1ccoc1C(=O)N1CCO[C@H]2[C@H](OCC3CCOCC3)CC[C@@H]21  cytotoxicity at 70.5 h              -15
13     Cc1nsc(N2CCN(C(=O)Nc3cccc(F)c3)CC2)n1  cytotoxicity at 70.5 h             13.5
14    N#Cc1cn(CCN2CCc3ccccc3C2)c(=O)[nH]c1=O  cytotoxicity at 70.5 h            0.215
15  CN1CCC(CNC(=O)c2cccc(CN3CCCCCC3)c2)C1 (stereo unspecified)  cytotoxicity at 70.5 h            -5.88
16  CC(C)C(C(=O)N1CCN(Cc2cscn2)CC1)n1cncn1 (stereo unspecified)  cytotoxicity at 70.5 h            -1.99
17  Cc1cc(C)n(CC2CCCCN2CCCS(N)(=O)=O)n1 (stereo unspecified)  cytotoxicity at 70.5 h               14
18  COc1ccc2cc(C3CN(C(=O)CN4CCCC4)CCO3)ccc2c1 (stereo unspecified)  cytotoxicity at 70.5 h             2.28
19  Cc1ccc(CN2CCCC23CCN(S(=O)(=O)c2ccccc2)C3)o1 (stereo unspecified)  cytotoxicity at 70.5 h            -7.71
20     CCCn1nc(C(=O)N(C)Cc2nnc3n2CCC3)ccc1=O  cytotoxicity at 70.5 h            -6.95

====

- Assay text: Human HepG2 cell viability assay in 384 well format
- Format: toxicity, cell-based
- Design: dose 125 nL, time 70.5 hour; concentration not given beside the values
- Condition summary: HepG2 cells, read-out: Inhibition
Here, each record is paired with measured cytotoxicity at 70.5 h data.
Metric: cytotoxicity at 70.5 h (%)

>>> print(df.to_string())
                                   compound  recorded_result
0  N#Cc1cccc(CNC(=O)C2=NN(c3ccccc3)C(=O)CN2)c1             9.97
1  Cc1ccc(CC(=O)N2CCN(CC(C)O)CC2)cn1 (stereo not given)            -5.27
2  O=C(NCc1cccs1)NCC(O)c1ccoc1 (stereo not given)            -3.33
3  Fc1ccc(OCc2nnc([C@H]3CCN(Cc4ccncc4)C3)o2)cc1            -6.85
4            Cc1ncsc1C(=O)NC1CCN(CCCC#N)CC1            -1.22

====

- Assay text: Human HepG2 cell viability assay in 384 well format
- Format: toxicity, cell-based
- Parameters: dose 125 nL, time 70.5 hour; concentration not given beside the values
- Condition summary: HepG2 cells, read-out: Inhibition
Metric: cytotoxicity at 70.5 h (%)

                                   compound                  metric  recorded_result
0    CCN(CCNC(=O)Nc1nnc(C)s1)C(=O)OC(C)(C)C  cytotoxicity at 70.5 h            -5.88
1  O[C@@H]1C[C@@H](c2nc(Cc3ccccc3)no2)N(CC2CC2)C1  cytotoxicity at 70.5 h             2.65
2  CC(C)CN1CC(c2nc(-c3cccc(F)c3)c[nH]2)CC1=O (stereo not given)  cytotoxicity at 70.5 h            -7.31
3  Cc1n[nH]c(C2CN(C(=O)CCc3ccsc3)CCO2)n1 (stereo not given)  cytotoxicity at 70.5 h             -5.2
4          Cn1cc(CNCCn2cccn2)c(-c2cccnc2)n1  cytotoxicity at 70.5 h            -4.81

====

- Assay text: Human HepG2 cell viability assay in 384 well format
- Format: toxicity, cell-based
- Set-up: dose 125 nL, time 70.5 hour; concentration not given beside the values
- Condition summary: HepG2 cells, read-out: Inhibition
Metric: cytotoxicity at 70.5 h (%)

In [3]: df
Out[3]:
                                    molecule  recorded_result
 0    CS(=O)(=O)CCC(=O)Nc1cnn(-c2ccccc2Cl)c1             2.48
 1  CC(C)(C)c1nc(CN2CCOC(Cn3cccn3)C2)no1 (stereo not drawn)             0.39
 2  Cc1nn(C)c(Cl)c1C1CCCN1C(=O)c1ccc(N(C)C)nn1 (stereo not drawn)            -12.9
 3  O=C(Cc1ccccc1F)NCC1CCN(CCN2CCOCC2)C1 (stereo not drawn)             2.01
 4  c1nc(CCC2CCCN2)cc(N2CCCOCC2)n1 (stereo not drawn)             9.03
 5  Cn1cnc2c1C(COCc1ccccc1)N(Cc1ccncc1)CC2 (stereo not drawn)            -3.01
 6  CN(C)C(C(=O)N1CCN(C(=O)c2ccc[nH]2)CC1)c1ccc(F)cc1 (stereo not drawn)             9.68
 7  O=C(c1ccc(=O)[nH]n1)N1CC(c2nc(Cc3ccccc3)no2)C1           -0.421
 8  COc1cccc(-n2cc(-c3ccnc(NC(CO)C(C)C)n3)cn2)c1 (stereo not drawn)             13.2
 9  Cc1ncsc1CN1CCOC(C)(C(N)=O)C1 (stereo not drawn)            -1.13
10  COCC(O)CNC(=O)c1cc(COc2ccc3c(c2)CCCC3)on1 (stereo not drawn)            -4.42
11  CC(C)CN(CC(O)c1ccccc1)C(=O)Nc1nccs1 (stereo not drawn)            -6.61
12  CCCc1nn(C2CCN(C(C)C)C2=O)c(=O)o1 (stereo not drawn)            -1.04
13          CCc1cnc(CNC(=O)NCCc2ccc(O)cc2)s1            -1.61
14  NC(=O)c1cc(C2CCCN(C(=O)CCc3ccsc3)C2)n[nH]1 (stereo not drawn)            -2.62
15  CCc1ccc2nc(C)cc(C(=O)NC3CCC(=O)N(C)C3)c2c1 (stereo not drawn)            -4.56
16          Cc1cnn(CCNCc2nc(-c3ccsc3)oc2C)c1             7.72
17  CN(Cc1ccccc1F)C(=O)CS(=O)(=O)Cc1ccc(Cl)c(Cl)c1              -19

====

Here, each record is paired with measured cytotoxicity at 70.5 h data.
- Assay text: Human HepG2 cell viability assay in 384 well format
- Assay type: toxicity, cell-based
- Set-up: dose 125 nL, time 70.5 hour; concentration not given beside the values
- Condition summary: HepG2 cells, read-out: Inhibition
Metric: cytotoxicity at 70.5 h (%)

>>> print(df.to_string())
                                    compound                  metric  recorded_result
 0            CN(CC(N)=O)Cc1cc(Cl)cc2cccnc12  cytotoxicity at 70.5 h             -8.6
 1           CC(C)Oc1ccccc1CNC(=O)N(C)CC(F)F  cytotoxicity at 70.5 h            -3.01
 2   CCc1nc(CN2CCCN(C(=O)c3cnc(C)cn3)CC2)cs1  cytotoxicity at 70.5 h             1.16
 3        CN(C)c1ncccc1CNC(=O)NCCN(C)C1CCCC1  cytotoxicity at 70.5 h          -0.0535
 4  Cc1nc(C2CCCN2CC(=O)N(C)Cc2ccsc2)no1 (configuration not stated)  cytotoxicity at 70.5 h             12.6
 5  Cc1cc(NC(=O)CN2CCN(c3nccs3)C(C)C2)on1 (configuration not stated)  cytotoxicity at 70.5 h            -6.15
 6  CCN1CCCC(NC(=O)c2ccc(C)[nH]c2=O)C1 (configuration not stated)  cytotoxicity at 70.5 h            -8.86
 7  CC(C)c1ncc2c(n1)CN(Cc1nc(-c3cccs3)no1)CC2  cytotoxicity at 70.5 h            -11.9
 8  CC(NC(=O)Nc1nnc(-c2ccccn2)s1)C(=O)OC(C)(C)C (configuration not stated)  cytotoxicity at 70.5 h            -11.7
 9  COCC(=O)NCc1cc(=O)n2c(n1)CN(Cc1ccccc1)CCC2  cytotoxicity at 70.5 h             2.31
10  COc1ccc(F)cc1C(=O)N(C)[C@@H]1CC[C@@H](O)[C@@H]1O  cytotoxicity at 70.5 h            -9.84
11     O=C(CN(Cc1cccs1)c1ccc(F)cc1)NC1CCOCC1  cytotoxicity at 70.5 h            -1.98
12  Cc1nc([C@@H]2C[C@@H]3CCN(C(=O)c4occc4C)C[C@H]3O2)no1  cytotoxicity at 70.5 h             23.8
13  CC(C)COCC(NC(=O)c1ccccn1)c1ccco1 (configuration not stated)  cytotoxicity at 70.5 h            -10.5
14  O=C(NCCc1ccncc1)c1ccc(S(=O)(=O)NC2CCC2)cc1  cytotoxicity at 70.5 h            -9.51
15  CC(C)=CCN1Cc2nnc(C3CCOCC3)n2C(Cc2c[nH]cn2)C1 (configuration not stated)  cytotoxicity at 70.5 h            -5.43
16  CN1CCN(C(=O)c2n[nH]c3c2CCN(Cc2nccs2)C3)CC1  cytotoxicity at 70.5 h            -11.9
